Each recorded value in this set is attributed to ChEMBL document CHEMBL1687931.

target-entity: Nuclear factor erythroid 2-related factor 2 (Rattus norvegicus) (UniProt O54968)
Sequence (O54968 whole entry): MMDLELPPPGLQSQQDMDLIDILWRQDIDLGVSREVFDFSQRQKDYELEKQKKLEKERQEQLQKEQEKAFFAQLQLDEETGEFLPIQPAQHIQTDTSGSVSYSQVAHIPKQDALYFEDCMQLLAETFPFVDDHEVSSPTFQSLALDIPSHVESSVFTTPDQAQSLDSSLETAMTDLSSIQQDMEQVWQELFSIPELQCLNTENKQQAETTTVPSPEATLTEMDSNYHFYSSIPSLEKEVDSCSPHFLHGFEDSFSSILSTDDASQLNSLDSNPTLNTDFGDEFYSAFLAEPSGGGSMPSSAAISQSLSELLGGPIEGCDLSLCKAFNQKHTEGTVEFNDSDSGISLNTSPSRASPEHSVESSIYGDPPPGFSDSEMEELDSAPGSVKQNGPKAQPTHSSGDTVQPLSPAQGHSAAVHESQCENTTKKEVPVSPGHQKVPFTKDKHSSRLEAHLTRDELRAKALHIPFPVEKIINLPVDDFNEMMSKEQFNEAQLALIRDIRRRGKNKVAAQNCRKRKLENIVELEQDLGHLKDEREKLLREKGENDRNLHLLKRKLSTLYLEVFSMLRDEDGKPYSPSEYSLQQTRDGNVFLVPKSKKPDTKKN
assay-name: Induction of NRF2/ARE enhancer activity rat PC12 cells transfected with ARE-firefly luciferase reporter gene at 10 uM after 24 hrs by luciferase assay
Type: functional, cell-based
experimental-conditions: PC-12
The source made the active and inactive calls. The rule behind the calls is not given here.
Respond only with the outcome that fits, drawn from active, inactive

Solved cases below.
>>> label("c1cc2c(cc1[C@H]1OC[C@H]3[C@@H]1CO[C@H]3c1ccc3c(c1)OCO3)OCO2")
"inactive"
>>> label("c1cc2c(cc1[C@H]1OC[C@H]3[C@@H]1CO[C@@H]3c1ccc3c(c1)OCO3)OCO2")
"inactive"
>>> label("COc1cc(C2OC[C@@H]3C(c4ccc5c(c4)OCO5)OC[C@H]23)ccc1O (mixture of isomers)")
"inactive"
>>> label("Oc1ccc([C@H]2OC[C@H]3[C@@H]2CO[C@@H]3c2ccc(O)c(O)c2)cc1O")
"active"

Can you look up the reported call for COc1cc([C@H]2OC[C@H]3[C@@H]2CO[C@@H]3c2ccc3c(c2)OCO3)ccc1O for me?
inactive

GET /call?item= Oc1ccc([C@H]2OC[C@H]3[C@@H]2CO[C@H]3c2ccc(O)c(O)c2)cc1O returns the recorded outcome of this test.
inactive
